Assay target: T1, Extracellular domain of human ROR1 protein (ROR1-ECD) (human, UniProt Q01973 30-403)
T1 construct: Expressed in HEK293T cells; also called human ROR1-ECD; purified human ROR1 protein extracellular segment
T1 sequence (Q01973 other isoform, or with tags, fused parts or gaps): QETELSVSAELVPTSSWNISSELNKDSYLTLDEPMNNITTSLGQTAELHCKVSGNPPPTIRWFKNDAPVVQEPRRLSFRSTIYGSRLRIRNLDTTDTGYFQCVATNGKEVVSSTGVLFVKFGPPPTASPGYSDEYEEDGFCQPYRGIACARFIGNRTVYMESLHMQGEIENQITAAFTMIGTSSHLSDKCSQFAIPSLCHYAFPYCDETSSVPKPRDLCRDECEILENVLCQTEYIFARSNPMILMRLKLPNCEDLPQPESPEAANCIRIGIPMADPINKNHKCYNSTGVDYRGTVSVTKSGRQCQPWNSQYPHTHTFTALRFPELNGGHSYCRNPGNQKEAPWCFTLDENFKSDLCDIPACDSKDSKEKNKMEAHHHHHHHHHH
Protocol summary: ELISA, plate-coated ROR1-ECD
Observable: pEC50
Numbers only, as −log10 of the molar value.

[[record]]
binder = "mAb001c_v1 (antibody, IgG1, V domains shown, Chimeric mutant in hIgG1,k vector; the entries already hold the site-directed changes; also called human-mouse chimeric antibody mutant of mAb001c; site-directed mutant of mAb001c) VH: EVRLQQSGPVLVKPGASVKMSCKASGYTFTDYNLHWVKQSHRQSLEWIGYINPNHDATSYNQKFQGKATLTVDRSSSTAYMEFRSLTSEDSAVYYCARRVRTGTGLDDWGQGTTLTVSS VL: DVLMTQSPLSLPVSLGDQASISCRSSHNIVHTNANTYLEWYLQKPGQSPKLLIYKVSNRFSGVPDRFSGSGSGTYFTLTISRVEAEDLGVYYCFQGSRFPYTFGGGTKLEIK"
measured_result = 10.55


For each of the items listed, what is its pEC50?
1. mAb006c (antibody, V domains shown, Human-mouse chimeric) VH: EVQLQQSGPELVKPGASLKMSCKASGYTFPDYNIHWVKQSHGKSLEWIGYINPNNGGTTYNQKFKGKATLTVSKSSSTAYMELRSLTSEDSAVYSCARRGYGSSYAMDYWAQGTSVTVSS VL: DVLMTQSPLSLPVSLGDQASISCRSSHIIVHTNGNTYLEWYLQKPGQSPKLLIYKVSNRFSGVPDRFSGSGSGTDFTLKISRVEAEDLGVYYCFQGSRVPYTFGGGTKLEIK
2. mAb008c (antibody, V domains shown, Human-mouse chimeric) VH: EVQLQQSGPELVKPGASVKMSCKASEYTFTDYNMHWVKQSHGKSLEWIGYINPNNGGTTYNQKFKGKATLTVNKSSSTAYMELRSLTSDDSAVYYCARRGYGSGYAMDYWGQGASVTVSS VL: DVLLTQTPLSLPVSLGDRASISCTSSQSIVHTNGNTYLEWYLQNPGQSPKLLIYKVSNRFSGVPDRFSGSGSGTDFTLKISRVEAEDLGVYYCFQGSLFPYTFGGGTKLEIK

Reply text:
11.05
10.70

Inquiry: What value of pEC50 has been recorded for this entry: mAb003c (antibody, V domains shown, Human-mouse chimeric) VH: EVQLVESGGGLVKPGGSLKLSCAASGFTFSSYAMSWVRQTPEKRLEWVATISDGGSYTYYPDSVKGRFTISRDNAKNNLYLQMSHLKSEDTDMYYCVRGGYYYNLYAMDYWGQGTSVTVSS VL: DIVLTQSPASLAVSLGQRAIISCKASQSVSFAGTSLMHWYQQKPGQQPKLLIYRASNLEAGVPTRFSGSGSRADFTLNIHPVEEDDAATYYCQQSGEYPWTFGGGTKLEIK
Reply text: 10.89
